# credit: paper PMC4890880

# Test system: Plasmodium berghei (Pb-Luc) exoerythrocytic-stage parasites
# method.notes: microbe, parasite or virus in culture
# test.settings: read-out: PbLuc IC50, dose response, 1/3 dilutions, max conc. 10 or 50 uM, unit inferred

molecule: COC(=O)c1ccc(C2C3=C(O)CC(c4ccc(F)cc4)CC3=Nc3ccccc3N2C(=O)c2ccccc2)cc1 (centres unmarked)
units.symbol: µM
IC50: 3.16

molecule: O=C(Nc1ccc(N2CCN(Cc3ccccc3)CC2)cc1)c1cccs1
units.symbol: µM
IC50: 0.0944

molecule: COc1ccc(-c2c(C)nn3c(N)c(C#N)cnc23)cc1OC
units.symbol: µM
IC50: 1.63

molecule: c1ccc(Cn2c(N=Nc3c(Nc4ccccc4)ccc4ccccc34)nc3ccccc32)cc1
units.symbol: µM
IC50: 4.21

molecule: CN1CCN(c2nc(Nc3ccc(O)cc3)nc3ccccc23)CC1
units.symbol: µM
IC50: 20.4
